Data provenance: ChEMBL document CHEMBL3232883

# Experimental system: Estrogen receptor beta (Homo sapiens)
# Experiment notes: Displacement of [3H]-estradiol from human full-length ERbeta after 18 to 24 hrs by competitive radiometric binding assay relative to estradiol
Entries are sorted into classes by RBA as follows: one (below 20%), two (20% to below 60%), three (60% or more)

1. Cc1cccc(N=C(c2ccc(O)cc2)c2ccc(O)cc2)c1	three
2. C/C(=N\c1ccc(O)cc1)c1ccc(O)cc1	one
3. Oc1ccc(/C(=N\c2cccc(C(F)(F)F)c2)c2ccc(O)cc2O)cc1	three
4. COc1ccc(/N=C(\c2ccccc2)c2ccc(O)cc2O)cc1	one
5. Oc1ccc(/N=C(\c2ccc(O)cc2)c2ccc(O)cc2O)cc1	one
6. Cc1ccc(/N=C(\c2ccc(O)cc2)c2ccc(O)cc2O)cc1	one
7. Cc1cccc(C)c1N=C(c1ccc(O)cc1)c1ccc(O)cc1	one
8. Oc1ccc(C(=Nc2ccc(Cl)cc2)c2ccc(O)cc2)cc1	three
9. COc1ccc(/C(=N\c2ccc(O)cc2)c2ccc(O)cc2O)cc1	two
10. Oc1ccc(/C(=N\c2ccc(F)cc2)c2ccc(O)cc2O)cc1	two

###

# Experimental system: Estrogen receptor (Homo sapiens)
# Experiment notes: Agonist activity at ERalpha (unknown origin) expressed in human HepG2 cells assessed as transcriptional activation after 24 hrs by ERE-luciferase reporter gene assay
So basically: is EC50 under 7 nM? Then Yes. Not under? Then No.

1) Oc1ccc(C(=Nc2ccc(Br)cc2)c2ccc(O)cc2)cc1	Yes
2) Oc1ccc(C(=Nc2ccccc2)c2ccc(O)cc2)cc1	Yes
3) Cc1cccc(/N=C(\c2ccc(O)cc2)c2ccc(O)cc2O)c1	No
4) Oc1ccc(/C(=N\c2ccc(F)cc2)c2ccc(O)cc2O)cc1	No
5) Oc1ccc(C(=Nc2ccccc2Cl)c2ccc(O)cc2)cc1	Yes
6) Oc1ccc(C(=Nc2cccc(C(F)(F)F)c2)c2ccc(O)cc2)cc1	No
7) COc1ccc(/N=C(\c2ccc(O)cc2)c2ccc(O)cc2O)cc1	No
8) Oc1ccc(/C(=N\c2cccc(Cl)c2)c2ccc(O)cc2O)cc1	No

###

# Experimental system: Estrogen receptor (Homo sapiens) (UniProt P03372)
# Experiment notes: Displacement of [3H]-estradiol from human full-length ERalpha after 18 to 24 hrs by competitive radiometric binding assay relative to estradiol
Measured attribute: RBA (%)

1) Oc1ccc(/C(=N\c2ccccc2)c2ccc(O)cc2O)cc1	14.6
2) Cc1cccc(N=C(c2ccc(O)cc2)c2ccc(O)cc2)c1	13.2
3) Oc1ccc(/C(=N\c2cccc(C(F)(F)F)c2)c2ccc(O)cc2O)cc1	28.2
4) Oc1ccc(/C(=N\c2ccccc2Cl)c2ccc(O)cc2O)cc1	96.7

###

In this section, each of the compounds is paired with its reported RBA.
# Experimental system: Estrogen receptor beta (Homo sapiens, UniProt Q92731)
# Sequence (Q92731 whole entry): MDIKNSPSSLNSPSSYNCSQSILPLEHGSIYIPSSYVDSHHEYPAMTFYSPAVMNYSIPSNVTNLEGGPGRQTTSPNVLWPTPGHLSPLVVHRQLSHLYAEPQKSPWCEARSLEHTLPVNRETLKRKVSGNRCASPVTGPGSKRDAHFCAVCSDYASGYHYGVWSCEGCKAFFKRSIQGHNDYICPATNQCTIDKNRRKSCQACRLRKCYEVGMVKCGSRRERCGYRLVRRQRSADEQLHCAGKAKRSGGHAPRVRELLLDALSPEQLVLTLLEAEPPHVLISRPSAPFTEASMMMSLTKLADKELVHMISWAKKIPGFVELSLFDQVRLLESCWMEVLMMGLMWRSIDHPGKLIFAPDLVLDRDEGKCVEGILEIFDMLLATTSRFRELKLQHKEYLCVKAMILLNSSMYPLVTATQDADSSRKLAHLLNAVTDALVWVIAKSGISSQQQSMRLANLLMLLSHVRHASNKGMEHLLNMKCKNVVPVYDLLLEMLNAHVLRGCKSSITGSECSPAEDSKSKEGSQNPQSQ
# Experiment notes: Displacement of [3H]-estradiol from human full-length ERbeta after 18 to 24 hrs by competitive radiometric binding assay relative to estradiol
Measured attribute: RBA (%)

1. Oc1ccc(/C(=N\c2ccc(Br)cc2)c2ccc(O)cc2O)cc1	70.3
2. Oc1ccc(C(=Nc2ccc(Br)cc2)c2ccc(O)cc2)cc1	94.1
3. Oc1ccc(C(=Nc2cccc(Cl)c2)c2ccc(O)cc2)cc1	114
4. COc1ccc(N=C(c2ccc(O)cc2)c2ccc(O)cc2)cc1	3.98
5. Oc1ccc(C(=Nc2ccc(F)cc2)c2ccc(O)cc2)cc1	45.6
6. Cc1ccc(N=C(c2ccc(O)cc2)c2ccc(O)cc2)cc1	20.1

###

# Experimental system: Estrogen receptor beta (Homo sapiens, UniProt Q92731)
# Experiment notes: Agonist activity at ERbeta (unknown origin) expressed in human HepG2 cells assessed as transcriptional activation after 24 hrs by ERE-luciferase reporter gene assay relative to 17beta-estradiol
# Assay type: cell-based
Measured attribute: Efficacy (%)

1. Cc1ccc(/N=C(\c2ccc(O)cc2)c2ccc(O)cc2O)cc1	20
2. Cc1ccccc1N=C(c1ccc(O)cc1)c1ccc(O)cc1	8
3. Cc1ccc(N=C(c2ccc(O)cc2)c2ccc(O)cc2)cc1	7
4. Oc1ccc(/C(=N\c2ccc(F)cc2)c2ccc(O)cc2O)cc1	23
5. Oc1ccc(C(=Nc2cccc(C(F)(F)F)c2)c2ccc(O)cc2)cc1	3
6. Oc1ccc(C(=Nc2ccc(F)cc2)c2ccc(O)cc2)cc1	10

###

# Experimental system: Estrogen receptor beta (Homo sapiens, UniProt Q92731)
# Experiment notes: Antagonist activity at ERbeta (unknown origin) expressed in human HepG2 cells assessed as inhibition of 17beta-estradiol-induced transcriptional activation after 24 hrs by ERE-luciferase reporter gene assay
pIC50: −log10 of the molar value.
Catalogue of pIC50 values
Measured attribute: pIC50

1. Oc1ccc(/C(=N\c2ccc(Cl)cc2)c2ccc(O)cc2O)cc1	6.74
2. Oc1ccc(C(=Nc2ccc(Br)cc2)c2ccc(O)cc2)cc1	8.22
3. Oc1ccc(N=C(c2ccc(O)cc2)c2ccc(O)cc2)cc1	6.52
4. Oc1ccc(C(=Nc2ccc(Cl)cc2)c2ccc(O)cc2)cc1	8.05
5. Oc1ccc(C(=Nc2cccc(Cl)c2)c2ccc(O)cc2)cc1	7.80
6. Oc1ccc(C(=Nc2cccc(C(F)(F)F)c2)c2ccc(O)cc2)cc1	7.62
7. Oc1ccc(/C(=N\c2ccccc2Cl)c2ccc(O)cc2O)cc1	8.22
8. Cc1ccccc1/N=C(\c1ccc(O)cc1)c1ccc(O)cc1O	7.80
9. Oc1ccc(/C(=N\c2cccc(C(F)(F)F)c2)c2ccc(O)cc2O)cc1	7.55
10. Cc1ccccc1N=C(c1ccc(O)cc1)c1ccc(O)cc1	8.22

###

Recorded Selectivity ratio for the following molecules
# Species: Homo sapiens
# Experiment notes: Selectivity ratio of RBA for human full length ERbeta to RBA for human full-length ERalpha
Measured attribute: Selectivity ratio

1. COc1ccc(N=C(c2ccc(O)cc2)c2ccc(O)cc2)cc1	0.9
2. Oc1ccc(C(=Nc2ccccc2Cl)c2ccc(O)cc2)cc1	1.5
3. Oc1ccc(C(=Nc2cccc(C(F)(F)F)c2)c2ccc(O)cc2)cc1	4.2

###

Items are presented alongside their recorded pIC50.
# Experimental system: Estrogen receptor beta (Homo sapiens)
# Experiment notes: Antagonist activity at ERbeta (unknown origin) expressed in human HepG2 cells assessed as inhibition of 17beta-estradiol-induced transcriptional activation after 24 hrs by ERE-luciferase reporter gene assay
pIC50: −log10 of the molar value.
Measured attribute: pIC50

1) Oc1ccc(C(=Nc2ccccc2)c2ccc(O)cc2)cc1	7.89
2) Oc1ccc(/N=C(\c2ccc(O)cc2)c2ccc(O)cc2O)cc1	6.38
3) Oc1ccc(C(=Nc2ccccc2Cl)c2ccc(O)cc2)cc1	7.72
4) Cc1cccc(/N=C(\c2ccc(O)cc2)c2ccc(O)cc2O)c1	7.29
5) Cc1ccc(/N=C(\c2ccc(O)cc2)c2ccc(O)cc2O)cc1	6.62
6) Oc1ccc(C(=Nc2ccc(F)cc2)c2ccc(O)cc2)cc1	8.15

###

# Experimental system: UniProt:P03372
# Sequence (whole entry): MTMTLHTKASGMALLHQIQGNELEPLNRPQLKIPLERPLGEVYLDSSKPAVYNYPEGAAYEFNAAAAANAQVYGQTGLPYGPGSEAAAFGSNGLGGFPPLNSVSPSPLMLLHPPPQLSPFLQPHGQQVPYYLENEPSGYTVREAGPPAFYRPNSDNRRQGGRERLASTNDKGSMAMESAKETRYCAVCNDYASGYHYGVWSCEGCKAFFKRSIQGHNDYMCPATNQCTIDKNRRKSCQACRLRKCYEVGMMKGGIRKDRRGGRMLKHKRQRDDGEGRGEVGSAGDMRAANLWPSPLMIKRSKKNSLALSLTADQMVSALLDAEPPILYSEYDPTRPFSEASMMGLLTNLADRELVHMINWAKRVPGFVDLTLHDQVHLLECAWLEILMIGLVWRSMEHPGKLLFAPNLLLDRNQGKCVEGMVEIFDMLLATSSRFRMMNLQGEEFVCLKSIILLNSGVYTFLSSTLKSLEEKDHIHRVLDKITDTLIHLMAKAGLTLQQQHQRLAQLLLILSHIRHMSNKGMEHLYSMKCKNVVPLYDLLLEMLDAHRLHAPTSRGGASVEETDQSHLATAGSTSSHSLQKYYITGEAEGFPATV
# Experiment notes: Antagonist activity at ERalpha (unknown origin) expressed in human HepG2 cells assessed as inhibition of transcriptional activation after 24 hrs by ERE-luciferase reporter gene assay relative to 17beta-estradiol
# Type: cell-based
Recorded Efficacy, one value per entry.
Measured attribute: Efficacy (%)

1) Cc1cccc(/N=C(\c2ccc(O)cc2)c2ccc(O)cc2O)c1	101
2) Oc1ccc(C(=Nc2ccccc2)c2ccc(O)cc2)cc1	126
3) Oc1ccc(/C(=N\c2ccc(F)cc2)c2ccc(O)cc2O)cc1	124
4) Oc1ccc(/C(=N\c2ccccc2)c2ccc(O)cc2O)cc1	134
5) Oc1ccc(C(=Nc2cccc(C(F)(F)F)c2)c2ccc(O)cc2)cc1	104
6) Oc1ccc(C(=Nc2ccc(Cl)cc2)c2ccc(O)cc2)cc1	138

###

# Experimental system: Estrogen receptor (Homo sapiens) (UniProt P03372)
# Sequence (whole entry): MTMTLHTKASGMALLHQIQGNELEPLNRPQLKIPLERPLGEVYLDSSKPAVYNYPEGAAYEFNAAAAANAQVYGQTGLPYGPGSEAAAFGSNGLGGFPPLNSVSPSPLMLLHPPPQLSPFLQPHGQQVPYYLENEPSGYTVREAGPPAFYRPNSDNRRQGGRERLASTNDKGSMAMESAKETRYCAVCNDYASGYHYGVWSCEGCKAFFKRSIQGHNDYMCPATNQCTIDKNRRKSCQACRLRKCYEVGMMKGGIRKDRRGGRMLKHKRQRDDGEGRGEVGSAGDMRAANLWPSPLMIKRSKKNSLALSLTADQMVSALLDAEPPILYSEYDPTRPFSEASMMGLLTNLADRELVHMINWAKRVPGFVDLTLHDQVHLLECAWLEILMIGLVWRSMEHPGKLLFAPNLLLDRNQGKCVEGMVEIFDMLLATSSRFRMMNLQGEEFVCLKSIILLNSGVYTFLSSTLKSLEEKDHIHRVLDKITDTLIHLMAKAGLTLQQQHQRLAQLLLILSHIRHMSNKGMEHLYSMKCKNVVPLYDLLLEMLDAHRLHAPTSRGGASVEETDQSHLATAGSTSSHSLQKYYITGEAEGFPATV
# Experiment notes: Displacement of [3H]-estradiol from human full-length ERalpha after 18 to 24 hrs by competitive radiometric binding assay relative to estradiol
Catalogue of RBA values
Measured attribute: RBA (%)

1) Oc1ccc(C(=Nc2ccc(F)cc2)c2ccc(O)cc2)cc1	19.7
2) COc1ccc(N=C(c2ccc(O)cc2)c2ccc(O)cc2)cc1	4.41
3) Cc1ccccc1/N=C(\c1ccc(O)cc1)c1ccc(O)cc1O	53.3
4) Oc1ccc(N=C(c2ccc(O)cc2)c2ccc(O)cc2)cc1	1.86
5) Cc1cccc(C)c1N=C(c1ccc(O)cc1)c1ccc(O)cc1	1.56
6) Oc1ccc(/C(=N\c2cccc(Cl)c2)c2ccc(O)cc2O)cc1	37.6
7) Oc1ccc(/C(=N\c2ccc(Br)cc2)c2ccc(O)cc2O)cc1	64.6
8) Oc1ccc(C(=Nc2cccc(C(F)(F)F)c2)c2ccc(O)cc2)cc1	33.4
9) COc1ccc(/N=C(\c2ccccc2)c2ccc(O)cc2O)cc1	11.3
10) Oc1ccc(C(=Nc2ccccc2Cl)c2ccc(O)cc2)cc1	62.8
11) COc1ccc(/C(=N\c2ccc(O)cc2)c2ccc(O)cc2O)cc1	11.9
12) Oc1ccc(/N=C(\c2ccc(O)cc2)c2ccc(O)cc2O)cc1	2.25
13) Oc1ccc(/C(=N\c2ccc(F)cc2)c2ccc(O)cc2O)cc1	21.1
14) Oc1ccc(/C(=N\c2ccc(Cl)cc2)c2ccc(O)cc2O)cc1	15.5
15) COc1ccc(/N=C(\c2ccc(O)cc2)c2ccc(O)cc2O)cc1	10.5
16) Cc1ccc(/N=C(\c2ccc(O)cc2)c2ccc(O)cc2O)cc1	9.12
17) Oc1ccc(C(=Nc2ccc(Cl)cc2)c2ccc(O)cc2)cc1	49.2
18) Cc1ccccc1N=C(c1ccc(O)cc1)c1ccc(O)cc1	40.6
19) Oc1ccc(C(=Nc2ccc(Br)cc2)c2ccc(O)cc2)cc1	41.5
20) Oc1ccc(C(=Nc2ccccc2)c2ccc(O)cc2)cc1	14.1
21) Oc1ccc(C(=Nc2cccc(Cl)c2)c2ccc(O)cc2)cc1	41.8
22) Cc1cccc(/N=C(\c2ccc(O)cc2)c2ccc(O)cc2O)c1	15.3
23) Cc1ccc(N=C(c2ccc(O)cc2)c2ccc(O)cc2)cc1	10
